- protocolSummary: soluble on expression in E. coli; label from the status in PepcDB or PDB records

seqString	soluble on expression in E. coli
MAKALEQPFDVANIPGPKMATLLEKGKPVANMIKKAKRPLLIVGPDMTDEMFERVKKFVEKDITVVATGSAITRFIDAGLGEKVNYAVLHELTQFLLDPDWKGFDGQGNYDLVLMLGSIYYHGSQMLAAIKNFAPHIRALAIDRYYHPNADMSFGNLWKKEEDYLKLLDEILAEL	soluble
MGSDKIHHHHHHMPRTIRIYRPTELPADEALPVIYMHDGQNVFSGETASFGKGWEVHHALHTVQLHAMIVAIDSPDDGMDRYDEYAPWTDEALLMRTAYPSHRKTIGGNGKQYMHWIVHELKPYIDAQYATIPTDTTMIGSSMGGVISLYGLFAYPEVFTRVAALSTAGWANFSSLLEFIERSPGLSEDHRCYMDVGTKEVSGPMTENDYLHTNEVLAKAVQKKVQQAAYEIIPGAVHHETEWAKRMPDILRFLFSS	not soluble
KYNMGNANYRIQKELHNFLNNPPINCTLDVHPNNIRIWIVKYVGLENTIYANEVYKLKIIFPDDYPLKPPIVYFLQKPPKHTHVYSNGDICLSLLGDDYNPSLSISGLVLSIISMLSSAKEKKLP	soluble
MNEILKTEDEVVRWSVKKINDDTTLIEFELKRDLVPEDLKKINPPDAVKNKFANTFIVLSGRGPIWLYGFLIHFYHPTKGIGVFDPRLGGAVVVSSHSPNKKVGDVIKWEG	not soluble
